# measurementTarget: Matrix-associated proTGFβ1 (hLTBP1-proTGFβ1 and hLTBP3-proTGFβ1)
# measurementDescription: BLI (Octet)
parameter: ECM AVRG (average KD)
Respond with a number, then the unit of measure.

**Query** Form field: reported ECM AVRG (average KD) of Ab32 (antibody, V domains shown) VH: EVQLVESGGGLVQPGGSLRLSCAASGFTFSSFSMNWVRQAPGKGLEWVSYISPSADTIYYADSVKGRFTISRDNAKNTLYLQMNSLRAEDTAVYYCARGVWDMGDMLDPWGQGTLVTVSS VL: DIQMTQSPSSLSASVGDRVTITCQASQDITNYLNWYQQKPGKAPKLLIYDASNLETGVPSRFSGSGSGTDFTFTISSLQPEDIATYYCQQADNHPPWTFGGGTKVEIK
**Result** 242 pM
